- assayTarget: c-Kit(V654A) (Homo sapiens, UniProt P10721, V654A)
- Construct: amino acids 544-end containing the V654A mutation; GST (N)
- Sequence (P10721 544-976 V654A): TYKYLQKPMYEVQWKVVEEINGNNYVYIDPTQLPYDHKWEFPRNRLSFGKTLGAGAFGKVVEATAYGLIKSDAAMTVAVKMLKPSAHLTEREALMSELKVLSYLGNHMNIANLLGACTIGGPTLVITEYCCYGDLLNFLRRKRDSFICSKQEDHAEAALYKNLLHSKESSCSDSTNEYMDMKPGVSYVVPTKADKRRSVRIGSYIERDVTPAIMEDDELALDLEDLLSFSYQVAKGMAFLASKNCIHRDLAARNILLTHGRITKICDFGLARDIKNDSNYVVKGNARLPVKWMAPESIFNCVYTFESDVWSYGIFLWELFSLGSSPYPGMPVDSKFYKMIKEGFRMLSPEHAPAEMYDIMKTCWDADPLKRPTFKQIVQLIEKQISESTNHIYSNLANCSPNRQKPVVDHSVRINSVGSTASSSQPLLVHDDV
- measurementProtocol: c-Kit(V654A) assay
- experimentalConditions: recombinant human c-Kit aa 544-end, 200 μM ATP, 1.4E-06 means 1.4×10^−6, read-out: Inhibition (IC50) of c-KIT (V654A)
// assign Condition met if IC50 falls strictly below 40 nM, else Condition not met (ties count as Condition not met)

Please review the following examples before continuing.
- compound: "COC[C@@H]1CC[C@@H](COC)N1C(=O)c1ccc(-n2cc(-c3cc4cc(F)c(F)cc4[nH]c3=O)nn2)cc1"
  category: "Condition not met"
- compound: "COCC1CCN(C(=O)c2ccc(-n3cc(-c4cc5cc(F)c(F)cc5[nH]c4=O)nn3)cc2)C1 (stereo not drawn)"
  category: "Condition met"
- compound: "O=C(c1ccc(-n2cc(-c3cc4ccc(Cl)cc4[nH]c3=O)nn2)cc1)N1CCNCC1"
  category: "Condition met"
- compound: "CNC(=O)c1ccc(-n2cc(-c3cc4ccccc4[nH]c3=O)nn2)cc1F"
  category: "Condition not met"
- compound: "CN1CCC(C(=O)N(C)c2ccc(-n3cc(-c4cc5cc(F)ccc5[nH]c4=O)nn3)cc2)CC1"
  category: "Condition not met"
- compound: "Cc1cc(C(=O)N2CCOCC2)ccc1-n1cc(-c2cc3ccccc3[nH]c2=O)nn1"
  category: "Condition not met"
- compound: "CO[C@@H]1CN(C(=O)c2ccc(-n3cc(-c4cc5cc(F)ccc5[nH]c4=O)nn3)cc2)C[C@H]1OC"
  category: "Condition not met"
- compound: "NC1CCN(C(=O)c2ccc(-n3cc(-c4cc5cc(F)ccc5[nH]c4=O)nn3)cc2)CC1"
  category: "Condition met"

*Q* A record lists O=c1[nH]c2ccccc2cc1-c1cn(-c2ccc3nc[nH]c3c2)nn1 . Is its IC50 below 40 nM?
*A* Condition met

*Q* A record lists O=c1[nH]c2ccccc2cc1-c1cn(-c2ccc(N3CCNCC3)cc2)nn1 . Is its IC50 below 40 nM?
*A* Condition met

*Q* A record lists CN1CCN(C(=O)c2ccc(-n3cc(-c4cc5cc(F)c(F)cc5[nH]c4=O)cn3)cc2)CC1 . Is its IC50 below 40 nM?
*A* Condition met

*Q* A record lists COCCCN1CCN(C(=O)c2ccc(-n3cc(-c4cc5cccnc5[nH]c4=O)nn3)cc2)CC1 . Is its IC50 below 40 nM?
*A* Condition met

* * *

- assayTarget: PDGFRalpha(V561D) (Homo sapiens, UniProt P16234, V561D)
- Construct: recombinant human PDGFRalpha, amino acids 550end containing the V561 D mutation; 6His (N)
- Sequence (P16234 550-1089 V561D): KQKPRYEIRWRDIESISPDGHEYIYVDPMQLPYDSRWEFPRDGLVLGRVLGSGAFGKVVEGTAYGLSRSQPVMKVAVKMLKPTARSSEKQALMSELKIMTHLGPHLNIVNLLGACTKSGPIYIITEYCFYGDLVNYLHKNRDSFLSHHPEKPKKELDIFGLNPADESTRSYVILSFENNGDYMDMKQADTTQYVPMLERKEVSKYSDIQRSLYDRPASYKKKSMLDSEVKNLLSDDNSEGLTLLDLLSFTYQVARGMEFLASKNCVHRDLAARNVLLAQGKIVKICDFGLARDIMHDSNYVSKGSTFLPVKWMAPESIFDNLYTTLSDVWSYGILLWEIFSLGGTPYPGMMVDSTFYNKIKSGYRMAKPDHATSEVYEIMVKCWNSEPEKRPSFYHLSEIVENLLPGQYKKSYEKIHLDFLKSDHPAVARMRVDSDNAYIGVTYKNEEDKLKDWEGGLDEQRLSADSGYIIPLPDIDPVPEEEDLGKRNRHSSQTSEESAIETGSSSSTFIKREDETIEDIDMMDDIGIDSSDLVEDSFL
- measurementProtocol: PDGFRalpha(V561D) assay
- experimentalConditions: recombinant human PDGFRalpha aa 550-end, 200 μM ATP, 1.4E-06 means 1.4×10^−6, read-out: Inhibition (IC50) of PDGFRα (V561D)
quantityKind: IC50 (nM)
Numbers only, in nM.

Example results:
- molecule: "CN(C)C[C@H]1CCCN1C(=O)c1ccc(-n2cc(-c3cc4cc(F)c(F)cc4[nH]c3=O)nn2)cc1 [A320]"
  assayTarget: "PDGFRalpha(V561D) (Homo sapiens, UniProt P16234, V561D)"
  u: "nM"
  resultValue: 99
- molecule: "COC[C@H]1CCN(C(=O)c2ccc(-n3cc(-c4cc5cc(F)c(F)cc5[nH]c4=O)nn3)cc2)C1 [A201]"
  assayTarget: "PDGFRalpha(V561D) (Homo sapiens, UniProt P16234, V561D)"
  u: "nM"
  resultValue: 92
- molecule: "O=C(c1ccc(-n2cc(-c3cc4cc(F)ccc4[nH]c3=O)nn2)cc1)N1CCC(O)CC1 [A183]"
  assayTarget: "PDGFRalpha(V561D) (Homo sapiens, UniProt P16234, V561D)"
  u: "nM"
  resultValue: 26
- molecule: "O=c1[nH]c2ccccc2cc1-c1cnn(-c2ccccc2)c1 [A75]"
  assayTarget: "PDGFRalpha(V561D) (Homo sapiens, UniProt P16234, V561D)"
  u: "nM"
  resultValue: 18
- molecule: "COCCOC[C@H]1CCN(C(=O)c2ccc(-n3cc(-c4cc5cc(F)ccc5[nH]c4=O)nn3)cc2)C1 [A236]"
  assayTarget: "PDGFRalpha(V561D) (Homo sapiens, UniProt P16234, V561D)"
  u: "nM"
  resultValue: 560

Each molecule below has a recorded value; state its IC50.
1. CO[C@@H]1CN(C(=O)c2ccc(-n3cc(-c4cc5cc(F)ccc5[nH]c4=O)cn3)cc2)C[C@H]1OC [A300]
2. CC(=O)O[C@@H]1CCN(C(=O)c2ccc(-n3cc(-c4cc5cc(F)ccc5[nH]c4=O)nn3)cc2)C1 [A179]

*A*
0.76
1.6

Each molecule below has a recorded value; state its IC50.
1. CN(C)C[C@H]1CCN(C(=O)c2ccc(-n3cc(-c4cc5cc(F)ccc5[nH]c4=O)nn3)cc2)C1 [A334]
2. CN1CC[C@H](Oc2ccc(-n3cc(-c4cc5cc(Cl)ccc5[nH]c4=O)nn3)cc2)C1 [A368]
3. O=c1[nH]c2ccccc2cc1-c1cn(-c2ccc(OCCN3CCOCC3)cc2)nn1 [A26]
4. Cc1ccc2cc(-c3cn(-c4ccc(C(=O)N5CCN(C)CC5)cc4)nn3)c(=O)[nH]c2n1 [A65]

*A*
[41, 34, 10, 150]

Each molecule below has a recorded value; state its IC50.
1. CO[C@H]1CCN(C(=O)c2ccc(-n3cc(-c4cc5cc(F)ccc5[nH]c4=O)cn3)cc2)C1 [A297]
2. NC1CCN(C(=O)c2ccc(-n3cc(-c4cc5cc(F)ccc5[nH]c4=O)nn3)cc2)C1 (stereo in doubt) [A306]
3. CC(C)(c1ccc(-n2cc(-c3cc4ccccc4[nH]c3=O)nn2)cc1)S(C)(=O)=O [A81]

*A*
240
240
6

Cited source for all entries: patent US11939314B2
